src = patent US11384060B2

Assay Target: glucagon receptor (GCGR) overexpressed CHO-K1 cells or human primary hepatocytes (Homo sapiens)
Construct: expressed in transfected cells; host or cells: GCGR overexpressed CHO-K1 cells or human primary hepatocytes (endogenous receptor)
Sequence (P47871 26-477): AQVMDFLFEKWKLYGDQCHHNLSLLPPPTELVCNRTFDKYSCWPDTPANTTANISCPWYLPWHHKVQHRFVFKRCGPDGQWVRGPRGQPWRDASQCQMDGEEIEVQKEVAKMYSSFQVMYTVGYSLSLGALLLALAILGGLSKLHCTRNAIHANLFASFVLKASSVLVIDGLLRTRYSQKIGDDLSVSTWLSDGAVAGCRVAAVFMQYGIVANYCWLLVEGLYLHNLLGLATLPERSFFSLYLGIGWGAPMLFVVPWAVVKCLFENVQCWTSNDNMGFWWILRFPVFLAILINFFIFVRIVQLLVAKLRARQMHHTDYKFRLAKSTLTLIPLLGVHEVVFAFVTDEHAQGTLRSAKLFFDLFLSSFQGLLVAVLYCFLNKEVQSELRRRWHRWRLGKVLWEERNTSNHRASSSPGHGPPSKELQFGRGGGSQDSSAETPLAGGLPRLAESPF
Procedure Details: Glucagon cAMP inhibition assay (Cisbio cAMP Dynamic 2 HTRF)
Format: cell-based
Condition Context: inhibition of glucagon (EC50 concentration) induced cAMP production
Class membership depends on IC50 cAMP alone; the intervals are bin A (below 0.2 µM), bin B (0.2 µM to below 1 µM), bin C (1 µM or more)

> print(dat)
                                    compound  assigned.label
 1  CC(C)[C@@H](COc1ccc(-c2ccc(C(F)(F)F)cc2F)c(F)c1)Nc1ccc(C(=O)NCCC(=O)O)cc1           bin A
 2  CCCC[C@@H](COc1ccc(-c2ccc(C(F)(F)F)cc2)c(F)c1)Nc1ccc(C(=O)NCCC(=O)O)cc1           bin A
 3  CC[C@H](C)[C@@H](COc1ccc(-c2ccc(F)cc2F)cc1)Nc1ccc(C(=O)NCCC(=O)O)cc1           bin B
 4  CCOC(=O)CCNC(=O)c1ccc(N[C@H](COc2ccc(-c3nc4ccccc4s3)cc2)C(C)C)cc1           bin C
 5  CC(C)[C@@H](COc1ccc(-c2ccc(C(F)(F)F)cc2Cl)c(Cl)c1)Nc1ccc(C(=O)NCc2nnn[nH]2)cc1           bin C
 6  CC[C@H](C)[C@@H](COc1ccc(-c2nnc(C(C)(C)C)o2)cc1)Nc1ccc(C(=O)NCCC(=O)O)cc1           bin C
 7  CC(C)C[C@@H](COc1ccc(-c2ccc(Cl)cc2Cl)nn1)Nc1ccc(C(=O)NCCC(=O)O)cc1           bin B
 8  CCCC[C@@H](COc1cc(C)c(-c2cc3ccccc3o2)c(C)c1)Nc1ccc(C(=O)NCc2nnn[nH]2)cc1           bin A
 9  CC(C)[C@@H](COc1ccc(-c2ccc(C(F)(F)F)cc2)cc1)Nc1ccc(C(=O)NCCC(=O)O)cn1           bin B
10  CCCC[C@@H](COc1ccc(-c2ccc(Cl)cc2Cl)c(OC)c1)Nc1ccc(C(=O)NCCC(=O)O)cc1           bin B
11  O=C(O)CCNC(=O)c1ccc(NC(COc2ccc(-c3cc4ccccc4o3)cc2)c2ccccc2)cc1 (stereo not drawn)           bin A
12  CC(C)C[C@@H](COc1ccc(-c2ccc(F)cc2F)nn1)Nc1ccc(C(=O)NCCC(=O)O)cc1           bin C
